- TARGET SYSTEM: T1, human PD-L1 (human, UniProt Q9NZQ7 19-238, limits assumed)
- T1 construct: also called hPD-L1
- T1 sequence (Q9NZQ7 19-238 limits assumed): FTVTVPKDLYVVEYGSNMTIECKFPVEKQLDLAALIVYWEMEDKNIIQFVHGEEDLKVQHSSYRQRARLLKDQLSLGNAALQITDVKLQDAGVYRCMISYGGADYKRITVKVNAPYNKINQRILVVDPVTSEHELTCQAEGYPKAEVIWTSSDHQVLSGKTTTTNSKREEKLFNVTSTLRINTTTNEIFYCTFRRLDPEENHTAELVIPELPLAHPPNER
- PROTOCOL DETAILS: Octet-96 BLI; antigen not named, taken as human PD-L1
ASSAY METRIC: Kd
Give me the value, and tack the unit on after it.

Challenge: For the binder shown here, DhVH3/DhVL1 (antibody, V domains shown, Humanized Clone D; constant regions from the vector, 293F cells; also called humanized Clone D, Dh VH3 + Dh VL1) VH: QVQLVQSGAEVKKPGASVKVSCKASGYSFTGYTMNWVRQAPGQGLEWMGLIIPYNGGISYNQKFKDRVTMTVDTSISTAYMELSRLRSDDTAVYYCASLITTAPRDSMDYWGQGTLVTVSS VL: DIQMTQSTSSLSASVGDRVTITCRASQDISNYLNWYQQKPGGAPKLLIYYTSKLHSGVPSRFSGSGSGTDYTLTISSLQQEDIATYYCQQGDALPWTFGGGTKVEIK , give the reported Kd.
Response given: 9.09 nM

Challenge: What do we get for ChVH4/ChVL3 (antibody, V domains shown, Humanized Clone C; constant regions (CH1-FC/CL) from the vector, expressed in 293F cells; also called humanized Clone C, Ch VH4 + Ch VL3) VH: QVQLVQSGAEVKKPGASVKVSCKASGFNIKDTYMHWVRQAPGQGLEWIGRIDPANGNTKYDPKFQGRVTITTDTSASTAYLELSSLRSEDTAVYYCARGLGRWFAYWGQGTTVTVSS VL: DIQMTQSPSSLSASVGDRVTITCQASQDVSNAVAWYQQKPGKAPKLLIYSASNLYTGVPSRFSGSGSGTDFTFTISSLQPEDIATYYCQQHDSTPLTFGQGTKLELK ?
Response given: 0.177 nM
